# SYSTEM: Human Recombinant Matriptase 2 (Homo sapiens, UniProt Q8IU80)
# Construct: made in house
# Sequence (Q8IU80 whole entry): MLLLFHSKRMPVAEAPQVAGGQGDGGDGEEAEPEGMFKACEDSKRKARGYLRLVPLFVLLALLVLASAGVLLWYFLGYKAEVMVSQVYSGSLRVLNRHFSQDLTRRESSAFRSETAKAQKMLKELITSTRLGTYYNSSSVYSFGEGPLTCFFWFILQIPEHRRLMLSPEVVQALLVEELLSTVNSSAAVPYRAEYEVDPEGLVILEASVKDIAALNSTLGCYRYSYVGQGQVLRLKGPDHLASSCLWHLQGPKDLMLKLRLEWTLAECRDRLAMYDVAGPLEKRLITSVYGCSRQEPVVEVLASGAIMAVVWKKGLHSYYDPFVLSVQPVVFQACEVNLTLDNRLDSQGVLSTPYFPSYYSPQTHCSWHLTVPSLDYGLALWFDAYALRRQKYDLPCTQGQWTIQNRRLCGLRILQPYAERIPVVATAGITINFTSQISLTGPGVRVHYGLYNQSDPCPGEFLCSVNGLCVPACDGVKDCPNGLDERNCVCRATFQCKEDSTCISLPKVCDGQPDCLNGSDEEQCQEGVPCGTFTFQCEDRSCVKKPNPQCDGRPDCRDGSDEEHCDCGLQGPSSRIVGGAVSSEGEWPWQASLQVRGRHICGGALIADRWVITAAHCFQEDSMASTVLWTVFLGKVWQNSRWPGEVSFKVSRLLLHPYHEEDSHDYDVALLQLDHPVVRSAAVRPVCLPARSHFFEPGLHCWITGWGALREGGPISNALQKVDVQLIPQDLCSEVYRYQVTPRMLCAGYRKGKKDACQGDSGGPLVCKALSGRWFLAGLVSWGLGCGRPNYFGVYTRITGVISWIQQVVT
# TEST: Matriptase 2 inhibition, fluorescence based assay (Method I)
# Type: biochemical
# RUN_CONDITIONS: Table A; Ki of Matriptase-2; read-out: Mat-2 Ki
pKi: −log10 of the molar value.
PARAMETER: pKi

compound="NCc1ccc2cc(C(=O)OCc3ccncc3)n(Cc3cc(NS(=O)(=O)Cc4ccccc4)cc4ccccc34)c2n1 [Compound 100]" parameter=pKi data_value="6.30 to 7.00"

Field: next compound
The compound listed as CN(CCOC(=O)c1cc2ccc(CN)nc2n1Cc1cc(NS(=O)(=O)Cc2ccccc2)cc2ccccc12)Cc1ccccc1 [Compound 134] shows pKi equal to 6.30 to 7.00
